# test_context: Glass; DSC
metric_name: Glass transition temperature (°C)

CCCCn1cc[n+](C)c1.[Cl-] [1-butyl-3-methylimidazolium chloride] has a reported Glass transition temperature of -52

CCCCCCn1cc[n+](C)c1.[Cl-] [1-hexyl-3-methylimidazolium chloride] has a reported Glass transition temperature of -65

CC(=O)[O-].CCn1cc[n+](C)c1 [1-ethyl-3-methylimidazolium acetate] has a reported Glass transition temperature of -71

CCCCCCCC[n+]1ccn(C)c1.[Cl-] [1-methyl-3-octylimidazolium chloride] has a reported Glass transition temperature of -74

CC(=O)[O-].CCCCn1cc[n+](C)c1 [1-butyl-3-methylimidazolium acetate] has a reported Glass transition temperature of -63
